Tested on: LG0703-F948-PDC complex spheroid viability;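 also: spheroids exposed to agents for seven days before readout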
method summary: Anticancer human tumor LG0703-F948-PDC patient-derived lung adenocarcinoma cell line growth inhibition; active = viability on the fitted dose curve at most 10% of control; inactive = the rest
test conditions: second compound 10 µM; first compound 1 µM
The reply should be one of these categories: active, inactive

The following molecules have reported results that may help.
| molecule | class name |
| --- | --- |
| Nc1ncn(C2CC(O)C(CO)O2)c(=O)n1 (centres undefined) + NC1CC1c1ccc(-c2cccc(O)c2)cc1 | inactive |
| O=C(C=Cn1cnc(-c2cc(C(F)(F)F)cc(C(F)(F)F)c2)n1)NNc1cnccn1 + NC1CC1c1ccc(-c2cccc(O)c2)cc1 | inactive |
| CC1(C)CCC(CN2CCN(c3ccc(C(=O)NS(=O)(=O)c4ccc(NCC5CCOCC5)c([N+](=O)[O-])c4)c(Oc4cnc5[nH]ccc5c4)c3)CC2)=C(c2ccc(Cl)cc2)C1 + NC1CC1c1ccc(-c2cccc(O)c2)cc1 | inactive |

Please look at the following molecule next.
Query: What classification did COc1cc(Nc2ncc3c(n2)-c2ccc(Cl)cc2C(c2c(F)cccc2OC)=NC3)ccc1C(=O)O + NC1CCC(NC2CC2c2ccccc2)CC1 end up with in this test?
Result: active
